Just for reference, paper PMC9352680 is where these values come from.

Molecular target: T1, PUF4 RNA-binding domain (Saccharomyces cerevisiae, UniProt P25339 537-888)
T1 sequence: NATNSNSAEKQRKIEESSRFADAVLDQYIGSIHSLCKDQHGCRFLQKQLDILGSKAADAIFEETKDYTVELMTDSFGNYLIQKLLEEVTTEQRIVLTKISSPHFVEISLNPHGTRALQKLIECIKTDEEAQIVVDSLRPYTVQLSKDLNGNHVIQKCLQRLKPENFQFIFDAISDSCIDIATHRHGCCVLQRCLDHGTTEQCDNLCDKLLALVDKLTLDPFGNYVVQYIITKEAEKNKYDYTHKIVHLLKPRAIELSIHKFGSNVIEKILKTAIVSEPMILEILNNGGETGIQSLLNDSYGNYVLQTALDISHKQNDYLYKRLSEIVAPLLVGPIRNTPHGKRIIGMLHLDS
Assay: Mg; RNA-MaP; 20 mM Na-HEPES pH 7.4, 30 mM KOAc, 0.75 mM MgCl2, 0.1% Tween-20, 5% glycerol, 0.1 mg/mL BSA, 2 mM DTT; 25 C; 0.0125-409.6 nM protein
Settings: tags: N-His6-TEV cleaved; C-SNAP kept, Cy3B-labelled; label: tethered on chip by stalled RNA polymerase
Here, each record is paired with measured pKd data.
Please treat pKd as minus the base-10 logarithm of the molar concentration.

binder	meas.value
UCUCUUUGUACUCAUCUCUU (ssRNA) [Ic_S1_P3E.1_K3.1_C3.1_H3.1_A3.1_[T5C]_[A6T]_F3.1_[T7C]_T3.1]	6.35
ACAAACAGUAUAUAUAUAACAAAC (ssRNA) [Id_i_S3_P3E.3_K3.2_C3.2_[C-2A]_[T-1G]_H3.2_A3.1_F3.1_T3.2]	6.41
UCUCUUUGUAUUACCUCUCUU (ssRNA) [Ic_S1_P4E.1_K4.1_C4.1_H4.1_A4.1_[A6T]_[T7A]_F4.1_[T8C]_[A9C]_T4.1]	6.29
Ic_S2_P5E.1_K5.1_C5.1_H5.1_A5.1_[T6C]_F5.1_[T8G]_[A10C]_T5.1 (ssRNA) RNA: UUUGAUUAAUAUGAUAUCGUUCUUUCUUGUAUCAGUCUUCUUUCUCGAUAUCAUAUUAAUCUUU	6.66
UCUCUUUGUACUUGCUCUCUU (ssRNA) [Ic_S1_P4E.1_K4.1_C4.1_H4.1_A4.1_[T5C]_[A6T]_F4.1_[T8G]_[A9C]_T4.1]	6.38
Ib_S2_P3E.1_K3.1_C3.1_H3.1_[A4T]_A3.1_[A6C]_F3.1_T3.1 (ssRNA) RNA: UUUGAUUAAUAUGAUAUCGUUCUUUCUUGUUUCUAUUCUUUCUCGAUAUCAUAUUAAUCUUU	6.33
Ib_S2_P5E.1_K5.1_C5.1_H5.1_[T1C]_A5.1_F5.1_[A10G]_T5.1 (ssRNA) RNA: UUUGAUUAAUAUGAUAUCGUUCUUUCUCGUAUUAUUGUUCUUUCUCGAUAUCAUAUUAAUCUUU	5.76
UCUCUUUGUAAACUGUCUCUU (ssRNA) [Ic_S1_P4E.1_K4.1_C4.1_H4.1_A4.1_[T5A]_[T7C]_F4.1_[A9G]_T4.1]	7.76

pKd reading for UCUCUUGUUAUAUAUAUAUCUCUU (ssRNA) [Id_ii_S1_P3E.3_K3.2_C3.2_[C-2G]_H3.2_A3.1_F3.1_T3.2] : 7.39

pKd reading for UCUCUUUGUAAUUCGUCUCUU (ssRNA) [Ic_S1_P4E.1_K4.1_C4.1_H4.1_A4.1_[T5A]_[A6T]_F4.1_[T8C]_[A9G]_T4.1] : 6.29

pKd reading for Id_iii_S2_P3E.7_K3.3_C3.3_[T-1G]_H3.3_A3.1_F3.1_T3.2 (ssRNA) RNA: UUUGAUUAAUAUGAUAUCGUUCUUUCUUCGACACUAUAUAUUCUUUCUCGAUAUCAUAUUAAUCUUU : 6.37
